Values compiled from ChEMBL document CHEMBL1149219.

Parameter: Ki. Scope: all listed entries.
# assayed target: Adrenergic receptor alpha-2 (Rattus norvegicus, UniProt P22086+P19328+P22909)
# assay summary: Binding affinity at alpha-2 adrenergic receptors of rat.
# Type: protein assay

molecule	display unit	bound sign	Ki
Brc1ccc2c3c([nH]c2c1)CNCC3	µM	=	15.5
C1=NCCc2c1[nH]c1ccccc21	µM	=	0.7
COc1ccc2c3c([nH]c2c1)C=NCC3 [CGS-19281A]	µM	>	10
Brc1cccc2c3c([nH]c12)C=NCC3	µM	=	0.815
COc1cccc2[nH]c3c(c12)CCN=C3	µM	=	0.33
NCc1c[nH]c2ccccc12	µM	=	14.7
COc1cccc2[nH]c3c(c12)CCNC3	µM	=	0.825
Brc1cccc2[nH]c3c(c12)CCNC3	µM	=	0.39
